Values from ChEMBL document CHEMBL1130562

Hi! I'm sharing some IC50 results obtained with Epidermal growth factor receptor (Homo sapiens).
Sequence (P00533 whole entry): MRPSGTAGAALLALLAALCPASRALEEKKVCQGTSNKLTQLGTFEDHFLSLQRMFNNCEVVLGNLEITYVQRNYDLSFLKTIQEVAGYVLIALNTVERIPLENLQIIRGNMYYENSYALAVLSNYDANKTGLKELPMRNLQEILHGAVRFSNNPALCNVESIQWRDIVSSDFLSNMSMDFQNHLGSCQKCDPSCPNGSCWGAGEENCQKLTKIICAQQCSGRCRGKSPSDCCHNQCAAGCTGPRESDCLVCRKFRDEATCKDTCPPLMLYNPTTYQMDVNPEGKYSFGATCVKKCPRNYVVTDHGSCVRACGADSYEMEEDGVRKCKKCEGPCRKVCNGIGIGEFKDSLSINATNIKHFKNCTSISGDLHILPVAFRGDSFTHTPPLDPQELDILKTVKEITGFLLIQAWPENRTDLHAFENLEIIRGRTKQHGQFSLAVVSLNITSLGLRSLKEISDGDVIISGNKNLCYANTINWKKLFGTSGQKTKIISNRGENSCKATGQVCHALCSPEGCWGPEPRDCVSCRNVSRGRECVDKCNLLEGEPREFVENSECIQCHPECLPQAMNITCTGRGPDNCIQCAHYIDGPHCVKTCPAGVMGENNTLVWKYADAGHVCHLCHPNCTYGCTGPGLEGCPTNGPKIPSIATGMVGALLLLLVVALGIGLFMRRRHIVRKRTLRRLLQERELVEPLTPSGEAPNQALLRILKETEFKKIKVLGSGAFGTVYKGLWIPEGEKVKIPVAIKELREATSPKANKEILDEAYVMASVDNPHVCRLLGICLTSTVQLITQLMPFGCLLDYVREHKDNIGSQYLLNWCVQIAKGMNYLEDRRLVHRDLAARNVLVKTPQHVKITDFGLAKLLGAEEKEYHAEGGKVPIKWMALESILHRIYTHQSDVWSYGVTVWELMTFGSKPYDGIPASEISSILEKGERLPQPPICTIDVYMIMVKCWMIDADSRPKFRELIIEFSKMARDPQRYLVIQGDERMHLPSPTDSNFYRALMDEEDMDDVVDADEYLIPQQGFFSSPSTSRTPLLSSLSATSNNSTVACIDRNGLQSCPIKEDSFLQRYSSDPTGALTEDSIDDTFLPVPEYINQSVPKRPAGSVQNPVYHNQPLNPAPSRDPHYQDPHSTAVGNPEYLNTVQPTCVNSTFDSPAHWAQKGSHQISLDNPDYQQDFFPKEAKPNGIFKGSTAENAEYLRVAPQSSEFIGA
OBSERVATION_TYPE: IC50

INSERT INTO measurements (line_notation, observation_type, value) VALUES
  ('c1cc(Nc2nccc(-c3cccnc3)n2)cc(OCCn2ccnc2)c1', 'IC50', '7.1 µM'),
  ('O=C(Nc1cccc(Nc2nccc(-c3cccnc3)n2)c1)c1ccc(F)cc1', 'IC50', '> 50 µM'),
  ('O=[N+]([O-])c1cccc(Nc2nccc(-c3cccnc3)n2)c1', 'IC50', '100 µM'),
  ('FC(F)C(F)(F)Oc1cccc(Nc2nccc(-c3c[nH]c4ccccc34)n2)c1', 'IC50', '1.8 µM'),
  ('COc1ccccc1C(=O)Nc1cccc(Nc2nccc(-c3cccnc3)n2)c1', 'IC50', '100 µM'),
  ('O=C(Nc1cccc(Nc2nccc(-c3cccnc3)n2)c1)c1cccs1', 'IC50', '> 50 µM'),
  ('FC(F)C(F)(F)Oc1cccc(Nc2nccc(-c3ccc(Cl)cc3)n2)c1', 'IC50', '> 100 µM'),
  ('CCCCCC(=O)Nc1cccc(Nc2nccc(-c3cccnc3)n2)c1', 'IC50', '> 100 µM'),
  ('O=[N+]([O-])c1cccc(Nc2nccc(-c3ccccn3)n2)c1', 'IC50', '> 100 µM'),
  ('O=C(Nc1cccc(Nc2nccc(-c3cccnc3)n2)c1)C1CCCCC1', 'IC50', '> 100 µM'),
  ('Cc1ccc(C(=O)Nc2cccc(Nc3nccc(-c4cccnc4)n3)c2)cc1', 'IC50', '> 100 µM'),
  ('O=C(Nc1cccc(Nc2nccc(-c3cccnc3)n2)c1)c1cccnc1', 'IC50', '> 100 µM'),
  ('c1ccc(Nc2nccc(-c3cccnc3)n2)cc1', 'IC50', '100 µM');
